Biological target: T1, recombinant purified human Nectin-4-Fc fusion protein (human, UniProt Q96NY8 32-349)
T1 construct: Bought ('Aero Biosystems' as printed); not shown: Fc part of the bought fusion protein; captured by anti-human IgG Fc sensors
T1 sequence: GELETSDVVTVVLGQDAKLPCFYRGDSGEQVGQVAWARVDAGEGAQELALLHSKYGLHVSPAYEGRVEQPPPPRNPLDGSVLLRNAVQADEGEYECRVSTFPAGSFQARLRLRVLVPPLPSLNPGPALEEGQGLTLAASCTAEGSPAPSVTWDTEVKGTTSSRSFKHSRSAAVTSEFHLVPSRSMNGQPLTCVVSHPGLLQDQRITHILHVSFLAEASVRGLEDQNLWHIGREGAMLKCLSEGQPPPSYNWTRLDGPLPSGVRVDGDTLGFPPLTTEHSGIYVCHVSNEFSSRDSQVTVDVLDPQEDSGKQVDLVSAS
Test: BLI (Octet), Nectin-4-Fc on anti-human Fc sensors, run 2
reported metric: Kd (nM)
Your answer should be a plain number; it is taken to be in nM.

[Q] What value of measured Kd is listed for LV1186 (VHH, Llama-derived anti-Nectin-4 VHH) VHH: EVQLVESGGGLVQAGGSLRLSCAASRSTFSLNIMGWYRQAPGKQREYVATITSGGSTNYADSVRGRFTISRDNAENTVYLQMDSLKPEDTAVYYCTAELVRRGPTTYWGRGTQVTVSS ?
[A] 3.94

[Q] What value of measured Kd is listed for LV1181 (VHH, Llama-derived anti-Nectin-4 VHH) VHH: EVQLVESGGGLVQAGGSLRLSCAASGSISSINLMGWHRQAPGKQRELVATITRGGSTNYADSVKGRFTISRDNGKNTVYLQMNSLKPEDTAAYYCVDVEPSGMGWRDYWGQGTQVTVSS ?
[A] 0.76

[Q] What value of measured Kd is listed for LV1178 (VHH, Llama-derived anti-Nectin-4 VHH from phage display) VHH: EVQLVESGGALVQAGGSLRLSCSVSGLTASRLTMGWFRQAPGKEREFVARVYASGGLTDYADSVKGRFTISRDNAKNTVYLQMNSLEPEDTAVYYCVAGLWADMRTMTSTRGYWGQGTQVTVSS ?
[A] 8.02
